Note to self: these molecules have pIC50 reported for Cytochrome P450 2C9 (Homo sapiens, UniProt P11712) in various publications.
pIC50: −log10 of the molar value.

Known pIC50 results, listed for orientation:
CC[C@H](NS(=O)(=O)c1ccc(-c2sc(CC(C)(C)C(=O)O)nc2CC2CCC2)c(C(F)F)c1F)C(F)(F)F | 5.20
CNc1cc(C)nc(N2CCC(C(=O)NCc3ccccc3C(F)(F)F)CC2)c1 | < 4.60
Cc1noc(C)c1-c1ccc2[nH]c(=O)cc(NCc3ccccc3)c2c1 | 5.17
CC(=O)N1CCN(c2cc(-c3ccccc3O)nnc2N)C[C@H]1C | < 5.00
C[C@H](COc1ccc(C2=NNC(=O)C3CC23)cc1)CN1CCC[C@H]1C (mixture of isomers) | < 4.52
CN(C)S(=O)(=O)NC(=O)CCCc1c(-c2ccc(F)cc2)[nH]c2ccc(C#N)cc12 | 5.88
CC(=O)N[C@@H](C)/C=C/c1ccc(Oc2ccc3nc(C(C)(C)O)sc3c2Cl)nc1 | 4.77
CNc1nc2[nH]c(-c3cccc(CNC(=O)COC)n3)cc2c2c1ncn2C | 4.60
CCC(=O)CCCCC[C@H](NC(=O)C1CN(C)C1)c1ncc(-c2cc3ccccc3nc2OC)o1 | < 4.70
Cc1cc2c(F)c(Oc3ncnn4cc(OC[C@@H](C)O)c(C)c34)ccc2[nH]1 | < 4.40

Recall the reported pIC50 of O=C(/C=C/c1cccnc1)c1cccc(Cl)c1 on Cytochrome P450 2C9 (Homo sapiens, UniProt P11712) and write it down.
< 4.70

Supply pIC50 measured with Cytochrome P450 2C9 (Homo sapiens, UniProt P11712) for O=C1CC2(CCN(C(=O)N[C@H]3C[C@@H]3c3ccccc3)CC2)Oc2ccccc21 .
5.00

Specify the recorded pIC50 for N#Cc1cccnc1N[C@@H]1CCN(C(=O)O[C@H]2C3CC4CC2C[C@](C(N)=O)(C4)C3)C1 , system: Cytochrome P450 2C9 (Homo sapiens, UniProt P11712).
< 4.52

System Cytochrome P450 2C9 (Homo sapiens, UniProt P11712). Read-out pIC50. Item Cc1n[nH]c2ccc(-c3nnc(C)n3Cc3ccc(C(F)(F)F)cc3)cc12 . Report value.
4.94

Give the observed pIC50 of Cc1cc(CN2CCC2)cc(F)c1-c1cc2c(-c3cnn(C)c3)n[nH]c2cn1 for Cytochrome P450 2C9 (Homo sapiens, UniProt P11712).
< 4.82

Give reported pIC50 for O=C(O)c1ccc2ccc(C(=O)c3ccccc3)c-2cc1 (Cytochrome P450 2C9 (Homo sapiens, UniProt P11712))
< 4.30

Using Cytochrome P450 2C9 (Homo sapiens, UniProt P11712) as the test system, report measured pIC50 of CC(C)N1CCC(Oc2ccc3c(c2)cc2n3CCNC2=O)CC1 .
< 4.30

// fetch pIC50; item: Cc1cn(-c2ccc3n(c2=O)CCN(CCOc2ccc(F)cc2C(F)(F)F)C3=O)cn1 ; system: Cytochrome P450 2C9 (Homo sapiens, UniProt P11712)
< 4.52

Please report the measured pIC50 for N=C(N)NC(=O)c1ccc(C2CCN(C(=O)c3ccc(S(N)(=O)=O)cc3)CC2)c(C(F)(F)F)c1 tested on Cytochrome P450 2C9 (Homo sapiens, UniProt P11712).
4.80

Quote pIC50 with test system Cytochrome P450 2C9 (Homo sapiens, UniProt P11712) for O=C(Nc1ccc(F)cn1)c1cc(Oc2cncc(F)c2F)cn2ncnc12
< 4.52

For Cytochrome P450 2C9 (Homo sapiens, UniProt P11712), give the measured pIC50 of the entry O=C(O)CC1CCOC2(CCN(c3ccc(-c4nc5cc(C(F)(F)F)ccc5[nH]4)cn3)CC2)C1 (racemic)
< 4.30

Please report pIC50 with Cytochrome P450 2C9 (Homo sapiens, UniProt P11712) for item CC(=O)N[C@@H](C)/C=C/c1ccc(Oc2ccc(OCC3CC3)cc2Cl)nc1 .
5.02

For Cytochrome P450 2C9 (Homo sapiens, UniProt P11712), give pIC50 of the listed molecule: COc1ccc(C(=O)/C=C/c2cccnc2)c(OC)c1
< 4.70

Fill in pIC50 for O=c1n(-c2ccc(C(F)(F)C(O)(Cn3cnnn3)c3ccc(F)cc3F)nc2)cnn1C1CCCCC1 (configuration not stated) tested with Cytochrome P450 2C9 (Homo sapiens, UniProt P11712).
4.78
